TARGET OR SYSTEM: recombinant C-PrP (Mus musculus)
EXPERIMENTAL DETAILS: biochemical
ENDPOINT: Kd (nM)

{"MOLECULE": "NC(=S)NN=C1C(O)C(O)C(O)C(O)C1O (stereo not shown)", "TARGET OR SYSTEM": "recombinant C-PrP (Mus musculus)", "ENDPOINT": "Kd", "REPORTED VALUE": 300}

* * *

Format: binding
CONDITION NOTES: read-out: KD (did not bind detectably)
pKd: −log10 of the molar value.
ENDPOINT: pKd

{"MOLECULE": "NC(=S)NN=C1C(O)C(O)C(O)C(O)C1O (stereo not shown)", "REPORTED VALUE": "< 3.00"}

The reported measurements were obtained from patent US10391068B2.
